Molecular target: RNA-directed RNA polymerase (Hepacivirus hominis)
Assay: Inhibition of HCV RNA replication in Huh7 cells
Type: functional, cell-based
Conditions: Huh-7
observationType: EC90 (µM)

O=c1c(C2=NS(=O)(=O)c3ccccc3N2)c(O)c2ccccc2n1-c1ccccc1 = 1.87
CC(C)CCn1c(=O)c(C2=NS(=O)(=O)c3ccccc3N2)c(O)c2c(F)cccc21 = 2.07
CC(C)CCn1c(=O)c(C2=NS(=O)(=O)c3ccccc3N2)c(O)c2cc(F)ccc21 = 4.95

A: Nc1ccc2c(c1)c(O)c(C1=NS(=O)(=O)c3ccccc3N1)c(=O)n2CCC1CC1
B: CCCCn1c(=O)c(C2=NS(=O)(=O)c3ccccc3N2)c(O)c2ccccc21
C: CC(C)(C)CCn1c(=O)c(C2=NS(=O)(=O)c3ccccc3N2)c(O)c2cc(NCCO)ccc21
D: CC(C)CCn1c(=O)c(C2=NS(=O)(=O)c3ccccc3N2)c(O)c2cc(OCC(N)=O)ccc21
Problem: Descending sort on EC90 required. Order the labels as requested and give them as your answer.
Result: B, D, C, A

---

Target: RNA-directed RNA polymerase (Hepacivirus hominis)
Assay: Inhibitory activity against HCV delta 21 NS5B RNA polymerase by SPA assay
Set-up: species or system Hepatitis C virus subtype 1b
observationType: IC50 (nM)

Use the examples below as a reference point.
O=c1c(C2=Nc3ccccc3S(=O)(=O)N2)c(O)c2ccccc2n1CC1CC1 = 78
CCCCn1c(=O)c(C2=NS(=O)(=O)c3ccccc3N2)c(O)c2ccccc21 = 200
CC(C)CCn1c(=O)c(C2=Nc3ccccc3S(=O)(=O)N2)c(O)c2cc(OCC#N)ccc21 = 34

1: CC(C)CCn1c(=O)c(C2=Nc3ccccc3S(=O)(=O)N2)c(O)c2cc(O)ccc21
2: CC(C)CCn1c(=O)c(C2=Nc3ccccc3S(=O)(=O)N2)c(O)c2cc(NC(=O)CN(C)C)ccc21
3: O=c1c(C2=Nc3ccccc3S(=O)(=O)N2)c(O)c2ccccc2n1Cc1cccc(Br)c1
4: CCCCCn1c(=O)c(C2=Nc3ccccc3S(=O)(=O)N2)c(O)c2ccccc21
Problem: hey, can you rank those compounds up there by IC50? biggest number first please Respond with the label ranking, as requested.
Result: 2, 1, 4, 3
(2: 5810 nM, 1: 198 nM, 4: 80 nM, 3: 36 nM)

---

Target: RNA-directed RNA polymerase (Hepacivirus hominis)
Assay: Inhibitory activity against HCV delta 21 NS5B RNA polymerase by SPA assay
Set-up: species or system Hepatitis C virus subtype 1b
observationType: IC50 (nM)

I: O=c1c(C2=NS(=O)(=O)c3ccccc3N2)c(O)c2ccccc2n1CCCC(F)(F)F
II: O=c1c(C2=NS(=O)(=O)c3ccccc3N2)c(O)c2ccccc2n1Cc1ccncc1
Problem: Select the item whose IC50 value is smaller, choosing between I and II . Returns: label corresponding to the selected item.
Result: II
(II: 61 nM, I: 106 nM)

1: CC(C)CCn1c(=O)c(C2=Nc3ccccc3S(=O)(=O)N2)c(O)c2c(Br)cccc21
2: CCC(C)CCn1c(=O)c(C2=NS(=O)(=O)c3ccccc3N2)c(O)c2ccccc21 (stereo unspecified)
Problem: Smaller IC50 value? Options are 1 and 2 Selection: enter the item's label.
Result: 2
(2: 65 nM, 1: 105 nM)

I: COC(C)CCn1c(=O)c(C2=NS(=O)(=O)c3ccccc3N2)c(O)c2ccccc21 (stereo unspecified)
II: O=c1c(C2=NS(=O)(=O)c3ccccc3N2)c(O)c2ccccc2n1CC1CCCC1
Problem: Which value of IC50 is smaller, the one for I or the one for II ? Respond using the label that marks the chosen record.
Result: I

---

// reported IC50 per item
Biological target: RNA-directed RNA polymerase (Hepacivirus hominis, UniProt O39930)
Sequence (O39930 whole entry): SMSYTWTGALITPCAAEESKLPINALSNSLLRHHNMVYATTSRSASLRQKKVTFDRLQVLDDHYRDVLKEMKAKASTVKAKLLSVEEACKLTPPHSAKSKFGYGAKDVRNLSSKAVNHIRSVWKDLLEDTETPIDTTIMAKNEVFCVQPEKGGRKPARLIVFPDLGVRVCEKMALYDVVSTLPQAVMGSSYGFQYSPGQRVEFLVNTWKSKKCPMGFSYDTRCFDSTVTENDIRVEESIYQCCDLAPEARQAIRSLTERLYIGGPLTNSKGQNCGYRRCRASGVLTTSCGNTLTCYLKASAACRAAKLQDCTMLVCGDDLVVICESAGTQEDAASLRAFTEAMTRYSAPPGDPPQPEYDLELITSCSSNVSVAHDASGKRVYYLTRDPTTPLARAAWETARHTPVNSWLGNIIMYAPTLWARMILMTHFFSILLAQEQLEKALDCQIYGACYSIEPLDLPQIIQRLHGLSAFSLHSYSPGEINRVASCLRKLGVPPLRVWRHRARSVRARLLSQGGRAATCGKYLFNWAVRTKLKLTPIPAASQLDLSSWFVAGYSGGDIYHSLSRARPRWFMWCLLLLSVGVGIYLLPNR
Experiment: Inhibitory activity against HCV delta 21 NS5B RNA polymerase by SPA assay
Set-up: species or system Hepatitis C virus subtype 1b

Field: example entries. Status: answers known.
CC(C)CCn1c(=O)c(C2=NS(=O)(=O)c3ccccc3N2C)c(O)c2ccccc21 = > 2.43 µM
O=C(O)CCCn1c(=O)c(C2=Nc3ccccc3S(=O)(=O)N2)c(O)c2ccccc21 = > 10 µM

// next item, IC50 requested
Problem: Item under review: CCOC(=O)CCCn1c(=O)c(C2=NS(=O)(=O)c3ccccc3N2)c(O)c2ccccc21 . Reported IC50?
Result: > 10 µM
